# Lookup of reported ncRNA array expression, patient 6 keyed by entry
Test system: ncRNAs (SEQ ID NO 28-89)
Test details: ncRNA arrays of melanocytes, keratinocytes, normal skin, melanoma cell lines and patient samples
Parameters: species or system human
Experimental context: melanoma patient 6 sample compared to normal skin
Answer with a bare number; do not write a unit.

Substance: SEQ ID NO 36 (TATTTGTGACTAACTGTATAACAGGTTATTTTAGTTTCTGTTCTGTGGGAAGTGTAAAGC; listed as DNA, chemistry not given here; listed as Homo sapiens)
Readout value: 3.52

Short answer on ncRNAs (SEQ ID NO 28-89) for SEQ ID NO 68 (CAAAAAGAAATCTTGTTTACTTGTAAAAATATAGACTACCTCCTACTTGCCACCGTTAAG; listed as DNA, chemistry not given here; listed as Homo sapiens) , ncRNA array expression, patient 6: −0.6441

The reported ncRNA array expression, patient 6 value, ncRNAs (SEQ ID NO 28-89), for SEQ ID NO 41 (CTCGTAACACTGGGAAAACTGCATACAATATTTAGAAGGAACACTAATACAGCAGAATCT; listed as DNA, chemistry not given here; listed as Homo sapiens) reads −2.676

---

System: ncRNAs (SEQ ID NO 28-89)
Test details: ncRNA arrays of melanocytes, keratinocytes, normal skin, melanoma cell lines and patient samples
Design: species or system human
Experimental context: melanoma patient 28 sample compared to normal skin
# ncRNA array expression, patient 28 listing for each entry below
Give the figure by itself; no unit, no explanation.

Substance: SEQ ID NO 48 (ACTTATATTCAGAGCATGTGGATTGGGACTCTGAAGAACAACTTTATGGTGGACACCTTC; listed as DNA, chemistry not given here; listed as Homo sapiens)
Target system: ncRNAs (SEQ ID NO 28-89)
Measured attribute: ncRNA array expression, patient 28
Readout value: 0.2102
--
Substance: SEQ ID NO 38 (GTAAACAAGGTCTCACAAAAACAGCTGACCACACCATAAAATCACTGAGACCGAGCCTGC; listed as DNA, chemistry not given here; listed as Homo sapiens)
Target system: ncRNAs (SEQ ID NO 28-89)
Measured attribute: ncRNA array expression, patient 28
Readout value: −1.181

Alright, here's another substance for you.
The reported ncRNA array expression, patient 28 of the substance SEQ ID NO 55 (CCTCTCCCCTTCTTGCAAAAAATATTCTATATTCAAGTTTAGGAGAAAACAGAATACTTG; listed as DNA, chemistry not given here; listed as Homo sapiens) was −2.043

---

System: ncRNAs (SEQ ID NO 28-89)
Test details: ncRNA arrays of melanocytes, keratinocytes, normal skin, melanoma cell lines and patient samples
Design: species or system human
Experimental context: melanoma patient 24 sample compared to normal skin
Measured attribute: ncRNA array expression, patient 24
API doc: respond with a numeric literal and nothing else, no unit.

Substance: SEQ ID NO 66 (TCCTTTTTATCTTGCACTCAGATGGTATTTTTAGAGATGTTTCTTCAATCAAAACAAGAT; listed as DNA, chemistry not given here; listed as Homo sapiens)
ncRNA array expression, patient 24: 1.434
//
Substance: SEQ ID NO 46 (CTATTGGAGTGCATATAAATTCTTGATAGCACCAGTTCTCAAATATGAGGTGTTAAAAAC; listed as DNA, chemistry not given here; listed as Homo sapiens)
ncRNA array expression, patient 24: 0.8675
//
Substance: SEQ ID NO 34 (TTTTCTCTGCTTATTACCCTCCCTGTTTCCTCCTGGGCTGCCAACAACATATTATATTAC; listed as DNA, chemistry not given here; listed as Homo sapiens)
ncRNA array expression, patient 24: 1.817

Noted for SEQ ID NO 57 (TTGTTGTTTTGGGAGATACCCTGTTTAGCCTGAAAGGATTGAGATACTGTAATTGCTATG; listed as DNA, chemistry not given here; listed as Homo sapiens) : its ncRNA array expression, patient 24 reads 0.5436

So, SEQ ID NO 72 (AATTACATATATTTAGCAGGATTTTTATTTGCCGTGATATATAGGATAATTTAGTCTTTG; listed as DNA, chemistry not given here; listed as Homo sapiens) ? Its ncRNA array expression, patient 24 was 2.832

---

System: ncRNAs (SEQ ID NO 28-89)
Test details: ncRNA arrays of melanocytes, keratinocytes, normal skin, melanoma cell lines and patient samples
Set-up: species or system human
Experimental context: melanoma patient 25 sample compared to normal skin
Below, each of the substances is paired with its reported ncRNA array expression, patient 25 value.
Answer with a bare number; do not write a unit.

// worked examples, ncRNA array expression, patient 25 included
Substance: SEQ ID NO 81 (CTAGGGGCGGAGTTTCTCGTAAGGGGCAAGGCCAAGGCATCTTGTATTGGGGCTGACAGG; listed as DNA, chemistry not given here; listed as Homo sapiens)
Target system: ncRNAs (SEQ ID NO 28-89)
Measured attribute: ncRNA array expression, patient 25
Readout value: −2.889
--
Substance: SEQ ID NO 33 (TATTGAATGTACACAAGTAATGATGGAGTTTGATTATATGGTTCATTTTCATTTATCCTA; DNA, backbone and methylation of C not given here; listed as Homo sapiens)
Target system: ncRNAs (SEQ ID NO 28-89)
Measured attribute: ncRNA array expression, patient 25
Readout value: 1.628
--
Substance: SEQ ID NO 49 (CGATGGCTTGTCATTGTCCCCTGTCCTGGAACAATAAAGCAAGTGCCTTGTGGTCTCACT; listed as DNA, chemistry not given here; listed as Homo sapiens)
Target system: ncRNAs (SEQ ID NO 28-89)
Measured attribute: ncRNA array expression, patient 25
Readout value: −2.472
--
Substance: SEQ ID NO 42 (TAGACATAGGTTAGAGGGGGAACAGTGCTTAAAATTCCATGGAACTAAGATTTTTTTTAT; listed as DNA, chemistry not given here; listed as Homo sapiens)
Target system: ncRNAs (SEQ ID NO 28-89)
Measured attribute: ncRNA array expression, patient 25
Readout value: −1.5976
--
Substance: SEQ ID NO 30 (ATTCCAAGGCCTATTAAAATTTCTGAGCATTGCCCATTTCTTTTGCTTTATCTGTAGGAC; DNA, backbone and methylation of C not given here; listed as Homo sapiens)
Target system: ncRNAs (SEQ ID NO 28-89)
Measured attribute: ncRNA array expression, patient 25
Readout value: 1.316
--
Substance: SEQ ID NO 70 (AGTTATAGAGGAGGCTCAGGAGGATCTGGGGAAACGGGACCAGAGGGTAAGATGGGTTAT; listed as DNA, chemistry not given here; listed as Homo sapiens)
Target system: ncRNAs (SEQ ID NO 28-89)
Measured attribute: ncRNA array expression, patient 25
Readout value: −1.473

Consider SEQ ID NO 46 (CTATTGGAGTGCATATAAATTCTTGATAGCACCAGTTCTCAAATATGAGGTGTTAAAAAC; listed as DNA, chemistry not given here; listed as Homo sapiens) . Its measured ncRNA array expression, patient 25 is 1.428

Sample SEQ ID NO 57 (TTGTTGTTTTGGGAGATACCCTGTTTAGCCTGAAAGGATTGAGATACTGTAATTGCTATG; listed as DNA, chemistry not given here; listed as Homo sapiens) ; ncRNA array expression, patient 25 observed: 1.559

Item: SEQ ID NO 28 (CTTAATGTATCTAAGGTTGGCTTAATCCTGTCTAAAATCAAGGTATTGGACTAGAACAAT; DNA, backbone and methylation of C not given here; listed as Homo sapiens) | ncRNA array expression, patient 25: 2.417

For this substance ( SEQ ID NO 67 (TTCCCTATTCCATCCTTTGATGGGTGGCCTGTTACACGTTTGGAAATAAAAACAAGTGGG; listed as DNA, chemistry not given here; listed as Homo sapiens) ), measured ncRNA array expression, patient 25 is 0.3622

Value of ncRNA array expression, patient 25 reported for the substance SEQ ID NO 52 (TTTTCTTAGTCTTTTTACTTTTTCCATTATATTCTTTGATATATTTGAGAAAATGGCTTG; listed as DNA, chemistry not given here; listed as Homo sapiens) is 3.265

So, SEQ ID NO 79 (GTGTGTACTGATGTCAAAGACCAAATGGATGCCCCTGTGGCCAACAGTACCTTGTTAAAC; listed as DNA, chemistry not given here; listed as Homo sapiens) ? Its ncRNA array expression, patient 25 was 1.206

Notebook: SEQ ID NO 78 (ATGGAAAGGCCAGGGGAGGGTGGAGCTCAGGAGTGGAAGCACAGGGACTAAGGCCTGAGC; listed as DNA, chemistry not given here; listed as Homo sapiens) , ncRNA array expression, patient 25 read as −3.518

Lab note: SEQ ID NO 69 (AGAGTTCGCACTGGGAAGAGTTAAAAAATAAACATTTACAAGGACGAGGAAAGCGGCCCC; listed as DNA, chemistry not given here; listed as Homo sapiens) gave ncRNA array expression, patient 25 of −1.178

// field: ncRNA array expression, patient 25; key: SEQ ID NO 59 (TGTGCAGCAGTATCAAAGGTCCTTAAATTCTCAACAATGAAGGAAAAACAAAAACCCATT; listed as DNA, chemistry not given here; listed as Homo sapiens) ; value = −0.9916

The recorded ncRNA array expression, patient 25 for SEQ ID NO 73 (AAAGTTTCCCCATAATGCTCTTGCAAGTGAATATGAGCTGTGGTTTTTGCAGTGGAGTTA; listed as DNA, chemistry not given here; listed as Homo sapiens) is 1.57

// field: ncRNA array expression, patient 25; key: SEQ ID NO 40 (GTTAAAGACTAAATTAGTGATTTGGGAGATCAAGCCAATGGGCTTGTCTAAAACCTAGTC; listed as DNA, chemistry not given here; listed as Homo sapiens) ; value = 2.17

The reported numbers originate from patent US20110143948A1.
